Tested on: OVCAR-4
Assay: NCI tumour cell line growth inhibition, 48 h
Calls of active or inactive are those of the source. Cut-off read from the data, not from the text of the source: active = GI50 up to about 1.1 µM and inactive = higher.
Examples of molecules with documented GI50 follow.

Please review the following examples before continuing.
> print(dat)
                                   molecule   experimental.value
1  CCCCCC(/C=C/C1CCC(=O)C1CC#C[Si](C)(C)C)OCc1ccccc1 (configuration not stated)   26.9 µM (inactive)
2       Cc1cnc(/N=c2\sc(C)cn2-c2ncc(C)s2)s1  > 100 µM (inactive)
3  CCOC(=O)[C@@H](NC(=O)OC(C)(C)C)[C@@H](O)C(=O)OCC  > 100 µM (inactive)
4                O=S(O)CCCSSCCCCSSCCCS(=O)O  > 100 µM (inactive)
5  CC1(C)OP23(NC(=O)OC2(C(F)(F)F)c2ccccc2O3)OC1(C)C (configuration not stated)  > 100 µM (inactive)

Just so you know, measured GI50 for N#Cc1c(=O)c2cccnc2n2c1[nH]c1ccccc12 came out at > 100 µM (inactive)

Just so you know, measured GI50 for CC(C)=CCC/C(C)=C/COc1c2ccoc2cc2oc(=O)ccc12 came out at 41.4 µM (inactive)

Just so you know, measured GI50 for COC(=O)C(Cc1c(C2Nc3ccccc3C2CC(NC(=O)CNC(C)=O)C(=O)OC)[nH]c2ccccc12)NC(=O)CNC(C)=O (configuration not stated) came out at > 100 µM (inactive)

Just so you know, measured GI50 for COc1nc(SC)nc2c1cnn2C1OC(C(O)CO)C(OC)C1O (configuration not stated) came out at 69.3 µM (inactive)

Just so you know, measured GI50 for CC(=O)N1CCc2[nH]c3ccccc3c2CC1 came out at > 100 µM (inactive)

Just so you know, measured GI50 for O=c1[nH]c(=O)c2c([nH]1)[nH]c1ccccc12 came out at 29.3 µM (inactive)

Just so you know, measured GI50 for CCC(C)C(Nc1c2ccccc2nc2c(C(=O)NCCN(C)C)cccc12)C(=O)O (configuration not stated) came out at 5.83 µM (inactive)

Just so you know, measured GI50 for COc1cc(CNC2=NCCC2)cc(OC)c1OC came out at > 100 µM (inactive)

Just so you know, measured GI50 for O=c1oc2ccc3ccccc3c2cc1-c1cn2ccsc2n1 came out at 19.6 µM (inactive)

Just so you know, measured GI50 for CCCNC(=S)N/C=C1/C(=O)Oc2ccccc2C1=O came out at > 100 µM (inactive)

Just so you know, measured GI50 for CC(Nc1cc(=O)n(C)c(=O)[nH]1)c1ccccc1 (configuration not stated) came out at > 100 µM (inactive)

Just so you know, measured GI50 for C/C(=N\NC(=S)N1CCCCCC1)c1nccnc1C came out at 0.134 µM (active)

Just so you know, measured GI50 for Oc1[nH]c(Nc2cc(Cl)cc(Cl)c2)nc2ncnc1-2 came out at > 75 µM (inactive)

----------
System: HOP-62
Experiment: NCI tumour cell line growth inhibition, 48 h
Calls of active or inactive are those of the source. Cut-off read from the data, not from the text of the source: active = GI50 up to about 1.1 µM and inactive = higher.
MEASURED PROPERTY: GI50

MOLECULE	EXPERIMENTAL VALUE
Cc1cc(C)c2c(c1)C/C(=C\c1cccc(C)c1C(=O)O)C2=O	55 µM (inactive)
CNC(=O)N(CCC#N)CCN(C(=O)N(C)C)c1ccccc1	> 100 µM (inactive)
CCOC(=O)Cc1nc2c(N)ncnc2n1C1OC(COC(C)=O)C(OC(C)=O)C1OC(C)=O (stereo not given)	> 100 µM (inactive)
CCOC(=O)C(CCCNC(=O)OC(C)(C)C)N(Cc1ccc(OC)cc1OC)C(=O)CC(=O)CP(=O)(OCC)OCC (stereo not given)	> 100 µM (inactive)
CC1(C)CC[C@]2(C(=O)O)CCC3(C)C(=CCC4[C@@]5(C)CC[C@H](OC6OCC(O)C(O)C6OC6OC(CO)C(O)C(O)C6O)C(C)(C)C5CC[C@]43C)C2C1 (stereo not given in full)	2.09 µM (inactive)
C=C1C(=O)O[C@H]2[C@H]3O[C@@H](C[C@@H]12)[C@](C)(O)CC[C@@H]1O[C@@]1(C)CCC[C@H]3C	78.3 µM (inactive)
CC(=O)NN(c1ccccc1)C1CCN(c2ccccc2)N1C(C)=O (stereo not given)	> 10 µM (inactive)
CN(C)CCCN1N=Nc2cccc3cccc1c23	> 100 µM (inactive)
CC1=C(C(=O)NCCCN(CCO)CCO)CC(C(=O)NCCCN(CCO)CCO)=C(C)N1	> 100 µM (inactive)

Now look at this one.
Just so you know, measured GI50 for COc1cc2ccnc3c2c(c1O)N(C)C=C3 came out at 22 µM (inactive)

----------
Test system: SK-MEL-5
Test: NCI tumour cell line growth inhibition, 48 h
Active and inactive are the calls of the source. No stated cut-off is given here; in the data, active = GI50 up to about 1.1 µM and inactive = higher.
Result category, one only: active, inactive

COMPOUND	MEASURED ON	GROUP LABEL
c1ccc(C(NC2=NCCO2)c2ccccc2)cc1	SK-MEL-5	inactive
CC(CC[C@@H](O)C(C)(C)O)C1[C@@H](O)CC2(C)C3CC(O)C4C(C)(C)[C@@H](OC5OC(CO)C(O)C(O)C5O)CC[C@@]45C[C@@]35CC[C@]12C (some centres not stated)	SK-MEL-5	inactive

Asked: Please share the test call associated with c1ccc([P+](CCCCCCCC[P+](c2ccccc2)(c2ccccc2)c2ccccc2)(c2ccccc2)c2ccccc2)cc1 .
Given back: inactive

Asked: Please share the test call associated with O=C(NNC(=O)c1ccc(Cl)cc1NC(=O)C12CC3CC(CC(C3)C1)C2)c1ccc(Cl)cc1 .
Given back: inactive

Asked: Please share the test call associated with CC(=O)OCC1OC(n2c3c(c(-c4ccco4)c(C#N)c2=S)CCC3)C(OC(C)=O)C(OC(C)=O)C1OC(C)=O (configuration not stated) .
Given back: inactive

Asked: Please share the test call associated with COc1cccc(Nc2nc(NNC(=O)Cc3ccccc3)nc(NNC(=O)c3ccncc3)n2)c1 .
Given back: inactive

Asked: Please share the test call associated with Cc1[nH]c2c(C)cccc2c1C1Cc2ccccc2N1 (configuration not stated) .
Given back: inactive

Asked: Please share the test call associated with COc1ccccc1-c1cc(O)c2cccnc2n1 .
Given back: inactive

Asked: Please share the test call associated with CCC1(O)C(=O)OCc2c1cc1n(c2=O)Cc2cc3c(N)cccc3nc2-1 (configuration not stated) .
Given back: active

Asked: Please share the test call associated with CN(C)CN1CSC(=S)N(CN(C)C)C1 .
Given back: inactive

Asked: Please share the test call associated with CCOC(=O)C(=O)Nc1c(F)cc(F)cc1Br .
Given back: inactive

Asked: Please share the test call associated with COC(=O)c1c(C)cccc1C1CN=NC12Cc1c(C)cccc1C2=O (configuration not stated) .
Given back: inactive

Asked: Please share the test call associated with CCC(=O)Nc1ccc(NS(=O)(=O)c2ccc(Cl)cc2)cc1 .
Given back: inactive

Asked: Please share the test call associated with N#CCCN(CCC#N)c1ccc(/C=N\c2nc(-c3ccccc3)cs2)cc1 .
Given back: inactive

----------
Tested on: DU-145
Experiment: NCI tumour cell line growth inhibition, 48 h
Calls of active or inactive are those of the source. Cut-off read from the data, not from the text of the source: active = GI50 up to about 1.1 µM and inactive = higher.
Examples of compounds with documented GI50 follow.

> print(dat)
                                  compound  experimental.value
1  C/C(=N\O)c1cccc(Nc2nc3ccccc3c3occc23)c1  13.2 µM (inactive)

Now look at this one.
Hey, DU-145 data for CC(=O)OC(OC(C)=O)n1cc(C=O)c2ccccc21 : GI50 came out at > 100 µM (inactive)

----------
System: A549
Experiment: NCI tumour cell line growth inhibition, 48 h
Active and inactive are the calls of the source. Rule as the data show it: active = GI50 up to about 1.1 µM and inactive = higher. Non-standard residues stand in square brackets, D forms with d. Residues, ends and D or L forms follow the SMILES beside them. Ava = NCCCCC(=O)O; Mpa = O=C(O)CCS
Result category, one only: Y for active, N for inactive

Asked: Please share the test call associated with C[N+](C)([O-])CCOc1cc2c(c3ccccc13)-c1ccccc1C2=O .
Given back: N

Asked: Please share the test call associated with O=C(N/N=C\C=C\c1ccc([N+](=O)[O-])o1)C(=O)N/N=C\C=C\c1ccc([N+](=O)[O-])o1 .
Given back: N

Asked: Please share the test call associated with COc1cc2c(cc1OC)C(=O)N(c1ccc(O)cc1)C2 .
Given back: N

Asked: Please share the test call associated with CC(NC(=O)CCS)C(=O)NC(C)C(=O)NC(Cc1c[nH]c2ccccc12)C(=O)NC(Cc1c[nH]cn1)C(=O)NC(CO)C(=O)NC(Cc1c[nH]c2ccccc12)C(=O)NCCCCC(=O)NC(C)C(=O)NC(CCC(N)=O)C(=O)NC(CCCCN)C(=O)NC(C)C(=O)NC(CCCNC(=N)N)C(=O)NC(CCCCN)C(N)=O (stereo not given) ([Mpa]AAWHSW[Ava]AQKARK-NH2; configuration not given here) .
Given back: N

Asked: Please share the test call associated with Cc1[nH]c2c(C)cccc2c1C1Cc2ccccc2N1 (stereo not given) .
Given back: N

Asked: Please share the test call associated with Oc1[nH]c(Nc2cc(Cl)cc(Cl)c2)nc2ncnc1-2 .
Given back: N

Asked: Please share the test call associated with COCC1N=C(c2cc(OC)c(OC)c(OC)c2-c2cc3c(cc2C2OCCCO2)OCO3)O[C@H]1c1ccccc1 (stereo not given in full) .
Given back: N

Asked: Please share the test call associated with O=C1Nc2ccccc2Cn2c1cc1oc(-c3ccccc3)cc12 .
Given back: N

Asked: Please share the test call associated with Cc1c2ccncc2cc2c1sc1ccncc12 .
Given back: Y

Asked: Please share the test call associated with O=C(N/C(=C\c1ccc(Br)cc1)c1nc2ccccc2s1)c1ccccc1 .
Given back: N
